Source listed as ChEMBL document CHEMBL5291721.

Give AC50 for every item shown.
TARGET_OR_TEST_SYSTEM: Gamma-aminobutyric acid receptor subunit alpha-1 (Rattus norvegicus, UniProt P62813); also: assay procedure not described here
Sequence (P62813 whole entry): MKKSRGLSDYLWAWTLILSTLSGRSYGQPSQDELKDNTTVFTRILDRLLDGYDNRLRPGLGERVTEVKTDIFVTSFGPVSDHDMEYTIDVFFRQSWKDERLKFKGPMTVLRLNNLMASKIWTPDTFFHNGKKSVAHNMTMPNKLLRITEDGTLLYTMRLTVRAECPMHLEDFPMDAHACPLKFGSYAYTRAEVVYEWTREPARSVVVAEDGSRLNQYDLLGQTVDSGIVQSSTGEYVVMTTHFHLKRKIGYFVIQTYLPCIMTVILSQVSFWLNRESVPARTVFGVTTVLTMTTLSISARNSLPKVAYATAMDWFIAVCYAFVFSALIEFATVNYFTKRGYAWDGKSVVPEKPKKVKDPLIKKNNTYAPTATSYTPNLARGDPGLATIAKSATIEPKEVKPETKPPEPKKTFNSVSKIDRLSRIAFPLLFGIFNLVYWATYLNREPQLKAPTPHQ
Assay type: functional

stdin: Could you tell me which AC50 is on file for `CC(=O)S[C@@H]1CC2=CC(=O)CC[C@]2(C)[C@H]2CC[C@@]3(C)[C@@H](CC[C@@]34CCC(=O)O4)[C@H]12` ?
stdout: > 10 µM

stdin: # repeat for Clc1ccc(C(Cn2ccnc2)OCc2ccc(Sc3ccccc3)cc2)c(Cl)c1 (stereo not given)
stdout: > 30 µM

stdin: # repeat for `CC#CCn1c(N2CCC[C@@H](N)C2)nc2c1c(=O)n(Cc1nc(C)c3ccccc3n1)c(=O)n2C`
stdout: > 10 µM

stdin: # repeat for CC(NCCc1ccc(O)cc1)C(O)c1ccc(O)cc1 (stereo not given)
stdout: > 30 µM

stdin: # repeat for `C[C@]1(COc2ccc(N3CCC(Oc4ccc(OC(F)(F)F)cc4)CC3)cc2)Cn2cc([N+](=O)[O-])nc2O1`
stdout: > 10 µM

* * *

TARGET_OR_TEST_SYSTEM: UniProtKB P22303
Sequence (P22303 whole entry): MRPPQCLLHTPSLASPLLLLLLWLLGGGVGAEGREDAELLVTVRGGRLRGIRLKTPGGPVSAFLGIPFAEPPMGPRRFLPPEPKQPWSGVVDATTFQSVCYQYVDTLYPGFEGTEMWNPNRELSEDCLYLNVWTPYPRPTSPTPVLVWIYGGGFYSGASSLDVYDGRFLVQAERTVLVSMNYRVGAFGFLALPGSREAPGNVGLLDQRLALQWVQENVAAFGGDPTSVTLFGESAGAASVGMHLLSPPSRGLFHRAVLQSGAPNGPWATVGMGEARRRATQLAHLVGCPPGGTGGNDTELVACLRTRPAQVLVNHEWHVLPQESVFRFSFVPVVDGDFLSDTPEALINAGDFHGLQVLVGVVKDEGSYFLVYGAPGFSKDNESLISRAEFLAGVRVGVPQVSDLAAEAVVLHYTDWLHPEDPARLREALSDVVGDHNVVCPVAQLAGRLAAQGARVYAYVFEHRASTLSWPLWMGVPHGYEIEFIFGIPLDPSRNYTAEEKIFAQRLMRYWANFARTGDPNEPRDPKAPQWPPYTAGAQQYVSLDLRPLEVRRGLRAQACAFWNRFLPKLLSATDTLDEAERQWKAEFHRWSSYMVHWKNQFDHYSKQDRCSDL
Assay type: functional
ENDPOINT_LABEL: AC50

stdin: Could you tell me which AC50 is on file for `O=S(=O)(O)CCS` ?
stdout: > 10 µM

stdin: # repeat for `CCn1cc(C(=O)O)c(=O)c2cc(F)c(N3CCNCC3)nc21`
stdout: > 30 µM

stdin: # repeat for `CCOC(=O)[C@H](CCc1ccccc1)N[C@H]1CS[C@H](c2cccs2)CN(CC(=O)O)C1=O`
stdout: > 30 µM

stdin: # repeat for `Cn1c(=O)c2[nH]cnc2n(C)c1=O`
stdout: > 30 µM

stdin: # repeat for `CCCCNc1ccc(C(=O)OCCN(C)C)cc1`
stdout: 8.1 µM

stdin: # repeat for C[C@@H](O)[C@H]1C(=O)N2C(C(=O)[O-])=C(SC3Cn4cnc[n+]4C3)[C@H](C)[C@H]12 (stereo partly specified)
stdout: > 30 µM

* * *

TARGET_OR_TEST_SYSTEM: Muscarinic acetylcholine receptor M1 (Homo sapiens); also: assay procedure not described here
Sequence (P11229 whole entry): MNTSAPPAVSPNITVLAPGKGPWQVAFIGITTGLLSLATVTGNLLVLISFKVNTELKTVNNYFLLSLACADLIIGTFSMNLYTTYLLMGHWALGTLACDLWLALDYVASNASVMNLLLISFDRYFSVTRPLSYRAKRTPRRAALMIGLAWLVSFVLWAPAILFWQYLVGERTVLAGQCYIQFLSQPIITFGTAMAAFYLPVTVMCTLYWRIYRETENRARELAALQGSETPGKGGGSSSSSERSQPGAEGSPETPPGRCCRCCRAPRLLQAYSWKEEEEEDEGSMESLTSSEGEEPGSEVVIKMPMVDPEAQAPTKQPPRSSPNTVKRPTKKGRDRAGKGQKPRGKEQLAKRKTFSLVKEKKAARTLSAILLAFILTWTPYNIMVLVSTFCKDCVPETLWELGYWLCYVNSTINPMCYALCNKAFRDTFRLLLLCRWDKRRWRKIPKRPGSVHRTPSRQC
Assay type: functional
ENDPOINT_LABEL: AC50

stdin: // fetch Muscarinic acetylcholine receptor M1 (Homo sapiens) AC50 for CN1c2ccccc2C(NCCCCCCC(=O)O)c2ccc(Cl)cc2S1(=O)=O (stereo unspecified)
stdout: > 30 µM

stdin: # repeat for `CN1CCN(c2c(F)cc3c(=O)c(C(=O)O)cn4c3c2SCC4)CC1`
stdout: > 30 µM

stdin: # repeat for `CCSc1ccc2c(c1)N(CCCN1CCN(C)CC1)c1ccccc1S2`
stdout: 16 µM

stdin: # repeat for `CO/N=C(\C(=O)N[C@@H]1C(=O)N2C(C(=O)[O-])=C(C[n+]3cccc4c3CCC4)CS[C@H]12)c1csc(N)n1`
stdout: > 30 µM

stdin: # repeat for CCCC(C)(COC(N)=O)COC(=O)NC(C)C (stereo unspecified)
stdout: > 10 µM

stdin: # repeat for CCN(CC)C(=O)C1CN2CCc3cc(OC)c(OC)cc3C2CC1OC(C)=O (stereo unspecified) [BENZQUINAMIDE]
stdout: > 30 µM

* * *

TARGET_OR_TEST_SYSTEM: Epidermal growth factor receptor (Homo sapiens, UniProt P00533); also: assay procedure not described here
Sequence (P00533 whole entry): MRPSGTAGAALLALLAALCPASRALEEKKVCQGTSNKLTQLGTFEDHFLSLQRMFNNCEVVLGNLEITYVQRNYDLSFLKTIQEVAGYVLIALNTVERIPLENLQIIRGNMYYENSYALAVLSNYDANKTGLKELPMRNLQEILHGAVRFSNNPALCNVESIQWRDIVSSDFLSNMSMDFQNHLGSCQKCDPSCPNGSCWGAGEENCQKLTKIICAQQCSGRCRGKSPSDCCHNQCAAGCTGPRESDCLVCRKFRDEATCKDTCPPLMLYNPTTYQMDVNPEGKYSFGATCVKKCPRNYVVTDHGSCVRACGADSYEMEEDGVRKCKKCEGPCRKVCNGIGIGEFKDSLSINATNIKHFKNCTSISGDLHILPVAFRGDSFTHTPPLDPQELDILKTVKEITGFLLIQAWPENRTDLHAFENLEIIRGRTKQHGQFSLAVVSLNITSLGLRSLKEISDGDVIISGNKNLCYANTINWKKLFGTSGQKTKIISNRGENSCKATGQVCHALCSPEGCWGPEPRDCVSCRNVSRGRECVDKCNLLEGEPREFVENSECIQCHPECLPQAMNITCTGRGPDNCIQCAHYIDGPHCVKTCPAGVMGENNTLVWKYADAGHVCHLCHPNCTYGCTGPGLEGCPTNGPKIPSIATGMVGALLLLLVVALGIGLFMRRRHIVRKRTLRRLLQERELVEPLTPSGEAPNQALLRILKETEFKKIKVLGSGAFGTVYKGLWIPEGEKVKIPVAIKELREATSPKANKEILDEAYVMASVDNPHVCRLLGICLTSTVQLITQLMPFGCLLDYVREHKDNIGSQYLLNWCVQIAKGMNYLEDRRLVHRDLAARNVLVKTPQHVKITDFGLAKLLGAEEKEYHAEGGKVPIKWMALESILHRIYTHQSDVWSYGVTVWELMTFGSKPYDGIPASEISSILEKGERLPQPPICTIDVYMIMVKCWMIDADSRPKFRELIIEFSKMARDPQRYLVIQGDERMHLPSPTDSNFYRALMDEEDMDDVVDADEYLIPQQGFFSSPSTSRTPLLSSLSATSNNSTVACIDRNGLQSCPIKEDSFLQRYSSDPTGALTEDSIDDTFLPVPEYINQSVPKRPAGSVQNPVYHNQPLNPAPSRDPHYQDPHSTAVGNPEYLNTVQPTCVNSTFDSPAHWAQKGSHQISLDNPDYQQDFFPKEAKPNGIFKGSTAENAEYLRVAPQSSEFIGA
Assay type: functional
Give AC50 for every item shown.

stdin: Could you tell me which AC50 is on file for CC(C)C[C@H](CN)CC(=O)O [PREGABALIN] ?
stdout: > 30 µM

stdin: # repeat for CC[C@H]1OC(=O)[C@H](C)[C@@H](O[C@H]2C[C@@](C)(OC)[C@@H](O)[C@H](C)O2)[C@H](C)[C@@H](O[C@@H]2O[C@H](C)C[C@H](N(C)C)[C@H]2O)[C@](C)(O)C[C@@H](C)/C(=N\OCOCCOC)[C@H](C)[C@@H](O)[C@]1(C)O [ROXITHROMYCIN]
stdout: > 30 µM

stdin: # repeat for C=C(C)[C@@H]1CCC(C)=C[C@H]1c1c(O)cc(CCCCC)cc1O [CANNABIDIOL]
stdout: > 30 µM

* * *

TARGET_OR_TEST_SYSTEM: Prostaglandin G/H synthase 1 (Homo sapiens, UniProt P23219); also: assay procedure not described here
Sequence (P23219 whole entry): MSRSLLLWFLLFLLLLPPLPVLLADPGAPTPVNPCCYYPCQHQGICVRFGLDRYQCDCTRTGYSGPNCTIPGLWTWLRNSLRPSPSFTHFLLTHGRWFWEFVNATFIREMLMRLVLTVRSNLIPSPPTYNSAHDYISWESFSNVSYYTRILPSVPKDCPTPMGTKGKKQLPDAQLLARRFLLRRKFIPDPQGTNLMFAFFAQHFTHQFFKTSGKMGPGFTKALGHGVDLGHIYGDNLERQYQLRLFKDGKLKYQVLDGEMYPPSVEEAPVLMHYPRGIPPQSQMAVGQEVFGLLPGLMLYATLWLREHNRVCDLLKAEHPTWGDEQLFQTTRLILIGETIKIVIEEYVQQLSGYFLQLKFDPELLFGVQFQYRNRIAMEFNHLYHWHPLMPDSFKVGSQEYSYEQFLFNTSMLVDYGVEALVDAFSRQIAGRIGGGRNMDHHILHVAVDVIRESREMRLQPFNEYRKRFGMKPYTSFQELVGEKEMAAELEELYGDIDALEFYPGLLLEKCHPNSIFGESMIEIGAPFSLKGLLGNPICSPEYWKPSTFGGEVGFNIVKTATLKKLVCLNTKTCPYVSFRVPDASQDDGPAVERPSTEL
Type: functional
Give AC50 for every item shown.

stdin: Could you tell me which AC50 is on file for `C[C@@H]1C[C@H]2[C@@H]3CCC4=CC(=O)C=C[C@]4(C)C3=CC[C@]2(C)[C@H]1C(=O)CN1CCN(c2cc(N3CCCC3)nc(N3CCCC3)n2)CC1` ?
stdout: 3.05 µM

stdin: # repeat for `CN(CC(=O)O)C(=N)N`
stdout: > 30 µM

stdin: # repeat for `CC(=O)OCC[N+](C)(C)C`
stdout: > 30 µM

stdin: # repeat for `O=C(O)COc1nn(Cc2ccccc2)c2ccccc12`
stdout: > 30 µM

stdin: # repeat for O=C(Oc1ccccc1C(=O)O)c1ccccc1O [SALSALATE]
stdout: > 30 µM

stdin: # repeat for `Nc1ccncc1`
stdout: > 30 µM

stdin: # repeat for `O=C1c2c(O)cccc2Cc2cccc(O)c21`
stdout: 14 µM

stdin: # repeat for `CCn1cc(C(=O)O)c(=O)c2cc(F)c(N3CCNCC3)nc21`
stdout: > 30 µM

stdin: # repeat for `CN(C)CCCN1C(=O)c2cc([N+](=O)[O-])ccc2Oc2ccccc21`
stdout: > 30 µM

stdin: # repeat for `C#Cc1cccc(Nc2ncnc3cc(OCCOC)c(OCCOC)cc23)c1`
stdout: > 30 µM

stdin: # repeat for CC1(C)O[C@@H]2C[C@H]3[C@@H]4CCC5=CC(=O)CC[C@]5(C)[C@@]4(F)[C@@H](O)C[C@]3(C)[C@]2(C(=O)CCl)O1 [HALCINONIDE]
stdout: > 30 µM

stdin: # repeat for Cc1cc2c(OCC(O)CNC(C)C)cccc2[nH]1 (stereo unspecified) [MEPINDOLOL]
stdout: 10.9 µM

stdin: # repeat for `c1ccc2[nH]c(-c3cscn3)nc2c1`
stdout: > 30 µM

stdin: # repeat for CCC(=O)O[C@]1(C(=O)COC(C)=O)CC[C@H]2[C@@H]3CCC4=CC(=O)CC[C@]4(C)[C@H]3[C@@H](O)C[C@@]21C [HYDROCORTISONE ACEPONATE]
stdout: > 30 µM

stdin: # repeat for CC(c1ccc(Cl)c(Cl)c1)N1N=C(N)CC1=O (stereo unspecified)
stdout: 13.3 µM

stdin: # repeat for `Oc1c(I)cc(Cl)c2cccnc12`
stdout: > 30 µM

stdin: # repeat for `C=C1c2c(Cl)ccc(O)c2C(=O)C2=C(O)[C@]3(O)C(=O)C(C(N)=O)=C(O)[C@@H](N(C)C)[C@@H]3[C@@H](O)[C@H]12`
stdout: > 30 µM

stdin: # repeat for `O=C(O)CC(O)(CC(=O)O)C(=O)O`
stdout: > 30 µM

stdin: # repeat for Cn1c(=O)c2c(ncn2CC(O)CO)n(C)c1=O (stereo unspecified)
stdout: > 30 µM

stdin: # repeat for `COC(=O)C1=C(C)NC(C)=C(C(=O)O[C@H]2CCN(Cc3ccccc3)C2)[C@H]1c1cccc([N+](=O)[O-])c1`
stdout: > 30 µM

stdin: # repeat for `O=C(Nc1nc(-c2cc(Cl)cs2)c(N2CCN(C3CCCCC3)CC2)s1)c1cnc(N2CCC(C(=O)O)CC2)c(Cl)c1`
stdout: 19.8 µM

* * *

The listing below reports AC50 for compounds tested on Neuropeptide Y receptor type 1 (Homo sapiens). Also: assay procedure not described here.
Sequence (P25929 whole entry): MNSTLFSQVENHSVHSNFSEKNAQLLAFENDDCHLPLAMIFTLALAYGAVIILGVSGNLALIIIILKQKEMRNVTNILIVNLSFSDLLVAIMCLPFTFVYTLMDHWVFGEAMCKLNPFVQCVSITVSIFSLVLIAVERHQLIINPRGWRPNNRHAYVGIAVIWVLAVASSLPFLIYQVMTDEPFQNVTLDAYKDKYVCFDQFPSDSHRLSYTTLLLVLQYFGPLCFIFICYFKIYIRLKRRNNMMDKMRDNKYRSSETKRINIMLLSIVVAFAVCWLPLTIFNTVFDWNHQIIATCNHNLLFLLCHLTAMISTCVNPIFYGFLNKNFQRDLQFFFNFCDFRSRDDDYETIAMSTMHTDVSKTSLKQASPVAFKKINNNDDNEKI

stdin: Could you tell me which AC50 is on file for `OCCN1CCN(CC/C=C2/c3ccccc3Sc3ccc(Cl)cc32)CC1` ?
stdout: > 10 µM

stdin: # repeat for CCOC(=O)NNc1ccc(N(CC)CC(C)O)nn1 (stereo not drawn)
stdout: > 30 µM

stdin: # repeat for `CC(C)c1cc2c(cc1S(=O)(=O)O)[C@@]1(C)CCC[C@@](C)(C(=O)O)[C@@H]1CC2`
stdout: > 30 µM

* * *

TARGET_OR_TEST_SYSTEM: Amine oxidase [flavin-containing] A (Homo sapiens); also: assay procedure not described here
Sequence (P21397 whole entry): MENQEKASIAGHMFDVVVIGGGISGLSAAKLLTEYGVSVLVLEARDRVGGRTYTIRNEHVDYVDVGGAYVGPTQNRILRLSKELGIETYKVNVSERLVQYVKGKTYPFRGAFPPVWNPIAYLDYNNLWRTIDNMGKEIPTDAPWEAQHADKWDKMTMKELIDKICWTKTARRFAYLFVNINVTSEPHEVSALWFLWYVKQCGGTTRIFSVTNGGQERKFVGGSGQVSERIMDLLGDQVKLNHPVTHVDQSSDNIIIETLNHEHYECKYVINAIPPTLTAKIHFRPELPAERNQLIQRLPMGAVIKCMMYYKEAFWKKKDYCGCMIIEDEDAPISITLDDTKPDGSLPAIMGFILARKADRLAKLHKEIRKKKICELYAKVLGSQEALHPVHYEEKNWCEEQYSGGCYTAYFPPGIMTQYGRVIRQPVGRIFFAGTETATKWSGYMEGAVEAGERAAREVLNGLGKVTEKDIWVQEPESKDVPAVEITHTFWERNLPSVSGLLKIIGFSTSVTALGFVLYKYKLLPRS
Format: functional
Give AC50 for every item shown.

stdin: Could you tell me which AC50 is on file for CCCCCCOC(=O)CCC(=O)CN [HEXAMINOLEVULINATE] ?
stdout: > 30 µM

stdin: # repeat for `CC(=O)OCC[N+](C)(C)C`
stdout: > 10 µM

stdin: # repeat for `CC(C)(C)NC[C@H](O)COc1nsnc1N1CCOCC1`
stdout: > 30 µM

stdin: # repeat for `Cn1c(=O)c2[nH]cnc2n(C)c1=O`
stdout: > 10 µM

stdin: # repeat for `CCCCNc1ccc(C(=O)OCCN(C)C)cc1`
stdout: 0.97 µM

stdin: # repeat for CC(C)CC(N(C)C)C1(c2ccc(Cl)cc2)CCC1 (configuration not stated)
stdout: > 10 µM

stdin: # repeat for `CCCCC[C@H](O)/C=C/[C@H]1[C@H](O)CC(=O)[C@@H]1C/C=C\CCCC(=O)O`
stdout: > 30 µM

stdin: # repeat for `N=C(N)c1ccc2cc(OC(=O)c3ccc(N=C(N)N)cc3)ccc2c1`
stdout: 14 µM

stdin: # repeat for COc1ccnc(C[S+]([O-])c2nc3ccc(OC(F)F)cc3[nH]2)c1OC (configuration not stated)
stdout: > 10 µM

stdin: # repeat for Clc1ccc(C(Cn2ccnc2)OCc2ccc(Sc3ccccc3)cc2)c(Cl)c1 (configuration not stated)
stdout: > 30 µM

stdin: # repeat for CC(=O)Nc1c(I)c(C(=O)N[C@H]2C(O)O[C@H](CO)[C@@H](O)[C@@H]2O)c(I)c(N(C)C(C)=O)c1I (some centres not stated) [METRIZAMIDE]
stdout: > 10 µM

stdin: # repeat for COc1cccc(N(C)C(=S)Oc2ccc3c(c2)CCCC3)n1 [LIRANAFTATE]
stdout: 18 µM

stdin: # repeat for `CCc1oc2ccccc2c1C(=O)c1cc(Br)c(O)c(Br)c1`
stdout: > 30 µM

stdin: # repeat for `O=C(CCCN1CCC2(CC1)C(=O)NCN2c1ccccc1)c1ccc(F)cc1`
stdout: > 30 µM

stdin: # repeat for `CC(C)c1cc2c(cc1S(=O)(=O)O)[C@@]1(C)CCC[C@@](C)(C(=O)O)[C@@H]1CC2`
stdout: > 30 µM

stdin: # repeat for CCC(=O)OCC(=O)[C@@]1(OC(=O)CC)[C@@H](C)C[C@H]2[C@@H]3CCC4=CC(=O)C=C[C@]4(C)[C@@]3(F)[C@@H](O)C[C@@]21C [BETAMETHASONE DIPROPIONATE]
stdout: > 30 µM

stdin: # repeat for `CC(=O)c1ccc2c(c1)N(CCCN1CCC(CCO)CC1)c1ccccc1S2`
stdout: > 30 µM

stdin: # repeat for `CC1(C)S[C@@H]2[C@H](NC(=O)[C@H](N)c3ccc(O)cc3)C(=O)N2[C@H]1C(=O)O`
stdout: > 30 µM

stdin: # repeat for O=C1Nc2ccc(Cl)cc2C(c2ccccc2)=NC1O (configuration not stated)
stdout: > 10 µM

stdin: # repeat for NS(=O)(=O)c1cc(C(=O)O)cc(N2CCCC2)c1Oc1ccccc1 [PIRETANIDE]
stdout: > 30 µM

stdin: # repeat for CC(C)(C)NCC(O)c1cc(Cl)c(N)c(Cl)c1 (configuration not stated)
stdout: > 30 µM

stdin: # repeat for `COc1cc2c(Nc3ccc(Br)cc3F)ncnc2cc1OCC1CCN(C)CC1`
stdout: > 30 µM
